B1: TPR t1 (parent)
chain: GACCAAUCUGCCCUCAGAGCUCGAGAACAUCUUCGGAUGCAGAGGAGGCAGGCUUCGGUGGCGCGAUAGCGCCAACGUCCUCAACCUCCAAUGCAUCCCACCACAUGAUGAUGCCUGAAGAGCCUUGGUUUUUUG

- Variants of: B1
- TEST PROTOCOL: polymerase ribozyme fitness, log enrichment relative to wild type (log ratio); higher = more active; in vitro selection for triplet polymerase activity
OUTCOME MEASURE: polymerase ribozyme fitness (log ratio)
Just the number, please, no unit after it.

Guide cases for polymerase ribozyme fitness (log ratio), answers given:
| VAR | polymerase ribozyme fitness (log ratio) |
| --- | --- |
| A5G G10A C15A G23C U32G C64A G128C U130C | -6.17 |
| A5U G42C U87A A91G | -1.35 |
| C11U U30G G120C | -5.71 |
| A68G U129G | -4.32 |
| C11A C101G | -3.13 |

INPUT: Identify measured polymerase ribozyme fitness (log ratio) corresponding to G69C G128C
OUTPUT: -3.85

INPUT: Look up polymerase ribozyme fitness (log ratio) of A6U U87C U96G G120A G122C and report it.
OUTPUT: 0.592

INPUT: Quote polymerase ribozyme fitness (log ratio) reported for G120C U133A please.
OUTPUT: 1.48

INPUT: Kindly indicate its recorded polymerase ribozyme fitness (log ratio). Item: C49G C70U A84G U126G U129G G135C
OUTPUT: -4.25

INPUT: Specify polymerase ribozyme fitness (log ratio) for U7A G44C C124G U129G G135U and stop.
OUTPUT: -0.681

INPUT: Identify measured polymerase ribozyme fitness (log ratio) associated with C79G U81A C98U C102G G107C
OUTPUT: -7.84

# credit: the RNAGym collection of RNA variant scans (doi:10.1073/pnas.2313332121)
